Experiment: Biodistribution at 24 h p.i. in AR42J tumor-bearing CB17-SCID mice
Format: in vivo
Conditions: mouse, bone, 100 pmol, n=4, mean ± SD, read-out: Biodistribution, Bone
Reported tissue uptake at 24 h by item:
Please give a number only; it is taken to be in %ID/g.

Lab book: tissue uptake at 24 h of CCCC[C@@H](C(=O)N[C@@H](CC(=O)O)C(=O)N[C@@H](Cc1cccc2ccccc12)C(N)=O)N(C)C(=O)[C@H](Cc1c[nH]c2ccccc12)NC(=O)CCOCCOCCOCCOCCNC(=O)CC[C@@H](NC(=O)CCOCCOCCOCCOCCOCCOCCOCCOCCNC(=O)CC[C@@H](NC(=O)[C@@H](CNC(=O)c1ccc([Si](F)(C(C)(C)C)C(C)(C)C)cc1)NC(=O)CN1CCN(CC(=O)O)CCN(CC(=O)O)CCN(CC(=O)O)CC1)C(=O)O)C(=O)O [[^nat/177Lu]Lu-DOTA-rhCCK-70, metal not drawn] noted as 2.4

Lab book: tissue uptake at 24 h of CCCC[C@@H](C(=O)N[C@@H](CC(=O)O)C(=O)N[C@@H](Cc1cccc2ccccc12)C(N)=O)N(C)C(=O)[C@H](Cc1c[nH]c2ccccc12)NC(=O)CCOCCOCCOCCOCCNC(=O)CC[C@@H](NC(=O)CCOCCOCCOCCOCCOCCNC(=O)CC[C@@H](NC(=O)[C@@H](CNC(=O)C[N+](C)(C)Cc1ccc([Si](F)(C(C)(C)C)C(C)(C)C)cc1)NC(=O)CN1CCN(CC(=O)O)CCN(CC(=O)O)CCN(CC(=O)O)CC1)C(=O)O)C(=O)O [[^nat/177Lu]Lu-DOTA-rhCCK-91, metal not drawn] noted as 0.64
